Listing of recorded CC50 by entry.
protocol.details: Trypan blue exclusion, HeLa
Assay type: cell-based
stated.conditions: human, HeLa rtTA HIV∆Mls cells

COc1ccc(C=NNC(=O)c2ccccc2O)cc1O    > 40 µM

Cc1cc(NCc2cccnc2)n2ncc(-c3ccc(Cl)cc3)c2n1 yielded CC50 of > 40 µM

O=C(NC(=S)NNC(=O)c1ccccc1O)c1ccc(-c2ccccc2)cc1 yielded CC50 of > 10 µM

---

protocol.details: in vitro
Type: cell-based
stated.conditions: human
Description: To assess the activity of compounds against HIV-1 strains having resistance to various ART drugs, assays were performed in the context of CEM-GXR cells. These cells express CD4, CXCR4, and coreceptor, CCR5 as well as an exogenous Tat-driven LTR-GFP expression cassette. […] Additional file 1: Figure S1. […] Cell viability was measured by an XTT assay. […] Cells were analyzed after 24 h incubation with the compounds at the indicated concentrations ranging between 0–47 μM (791), 0–5 μM (833), or 0–62.5 μM (892). […]
Listing of recorded CC50 at 24 h by entry.
# output: bare number, implied unit µM

Cc1cc(NCc2cccnc2)n2ncc(-c3ccc(Cl)cc3)c2n1 [Compound 791]    24

COc1ccc(C=NNC(=O)c2ccccc2O)cc1O [Compound 892] yielded CC50 at 24 h of 60

---

protocol.details: Trypan blue exclusion, PBMCs
Assay type: cell-based, human
stated.conditions: human, peripheral blood mononuclear cells (PBMCs); PBMCs, 6 days post infection, concentrations up to 7.5 µM; read-out: cell viability
measured.property: viability at 6 days post infection

Cc1cc(NCc2cccnc2)n2ncc(-c3ccc(Cl)cc3)c2n1 yielded viability at 6 days post infection of > 80%

---

protocol.details: XTT cell metabolism/viability assay, HeLa
Assay type: cell-based
stated.conditions: human, HeLa rtTA HIV∆Mls cells
measured.property: CC50

Below, 2 molecules whose answers are already recorded.
Cc1cc(NCc2cccnc2)n2ncc(-c3ccc(Cl)cc3)c2n1    > 40 µM
COc1ccc(C=NNC(=O)c2ccccc2O)cc1O    > 40 µM

// moving on: another record for CC50
O=C(NC(=S)NNC(=O)c1ccccc1O)c1ccc(-c2ccccc2)cc1 yielded CC50 of ≥ 40 µM

---

Listing of recorded CC50 by entry.
protocol.details: Viable cell count by FSC/SSC gate, CEM-GXR
Format: cell-based
stated.conditions: human, CEM-GXR cells infected with a Clade B HIV-1 strain

COc1ccc(C=NNC(=O)c2ccccc2O)cc1O yielded CC50 of 31 µM

Cc1cc(NCc2cccnc2)n2ncc(-c3ccc(Cl)cc3)c2n1 yielded CC50 of > 12 µM

O=C(NC(=S)NNC(=O)c1ccccc1O)c1ccc(-c2ccccc2)cc1 yielded CC50 of > 5 µM
